assay: Log P by RP-HPLC (HPLC-PDA), extrapolation of Log k to 0% MeOH; type: physicochemical; conditions: 80% MeOH, RP-C18
Please respond with YES when measured Retention factor (k) is strictly beneath 1, and with NO in all other cases.

Known results for molecules:
Oc1ccc(/C=C/c2ccc(Cl)cc2)cc1 [Compound 1, 4-[(E)-2-(4-Chlorophenyl)vinyl]phenol]    YES
Oc1ccc(/C=C/c2ccc(Cl)cc2Cl)cc1    NO
O=[N+]([O-])c1ccc(/C=C/c2ccc(O)c(Cl)c2)cc1    YES
Oc1ccc(/C=C/c2ccc(C(F)(F)F)cc2)cc1    YES
Oc1ccc(/C=C/c2ccc(C(F)(F)F)cc2)cc1Cl    NO
Oc1ccc(/C=C/c2ccc(Cl)cc2Cl)cc1Cl    NO

We next turn to a different molecule, shown below.
Item Oc1ccc(/C=C/c2ccccc2)cc1Cl [Compound 2, 2-Chloro-4-[(E)-2-phenylvinyl]phenol] : Retention factor (k) beneath 1, strictly?
NO

---

assay: Log P by RP-HPLC (HPLC-PDA), extrapolation of Log k to 0% MeOH; format: physicochemical; settings: 70% MeOH, RP-C18
Outcome label depends on Log k relative to 0.5: at/above gives 1 (yes), below gives 0 (no).

Oc1ccc(/C=C/c2ccc(Cl)cc2)cc1 [Compound 1, 4-[(E)-2-(4-Chlorophenyl)vinyl]phenol]    0 (no)
Oc1ccc(/C=C/c2ccc(C(F)(F)F)cc2)cc1Cl [Compound 6]    1 (yes)
Oc1ccc(/C=C/c2ccc(C(F)(F)F)cc2)cc1 [Compound 7]    1 (yes)
Oc1ccc(/C=C/c2ccc(Cl)cc2Cl)cc1Cl [Compound 4]    1 (yes)

Is it the case that Oc1ccc(/C=C/c2ccc(Cl)cc2Cl)cc1 [Compound 3] has Log k reaching or exceeding 0.5?
1 (yes)

Next: O=[N+]([O-])c1ccc(/C=C/c2ccc(O)c(Cl)c2)cc1 [Compound 5]
0 (no)

---

Entries annotated with measured Log k
assay: Log P by RP-HPLC (HPLC-PDA), extrapolation of Log k to 0% MeOH; format: physicochemical; conditions: 75% MeOH, RP-C18
Output spec: single numeric token, no unit.

Some solved entries appear below for comparison.
O=[N+]([O-])c1ccc(/C=C/c2ccc(O)c(Cl)c2)cc1 [Compound 5]    0.1536
Oc1ccc(/C=C/c2ccc(Cl)cc2)cc1 [Compound 1, 4-[(E)-2-(4-Chlorophenyl)vinyl]phenol]    0.1330
Oc1ccc(/C=C/c2ccc(C(F)(F)F)cc2)cc1 [Compound 7]    0.2568
Oc1ccc(/C=C/c2ccc(Cl)cc2Cl)cc1 [Compound 3]    0.6070
Oc1ccc(/C=C/c2ccccc2)cc1Cl [Compound 2, 2-Chloro-4-[(E)-2-phenylvinyl]phenol]    0.2243

Need Log k of Oc1ccc(/C=C/c2ccc(Cl)cc2Cl)cc1Cl [Compound 4] , thanks.
0.7826

Another compound: Oc1ccc(/C=C/c2ccc(C(F)(F)F)cc2)cc1Cl [Compound 6]
0.4605

---

# maps each entry to its Log k
test: Log P by RP-HPLC (HPLC-PDA), extrapolation of Log k to 0% MeOH; assay type: physicochemical; details: 80% MeOH, RP-C18
Answer with the value's number alone.

Oc1ccc(/C=C/c2ccc(Cl)cc2Cl)cc1 [Compound 3]    0.3308
Oc1ccc(/C=C/c2ccc(C(F)(F)F)cc2)cc1Cl [Compound 6]    0.1498

Item under review: Oc1ccc(/C=C/c2ccc(C(F)(F)F)cc2)cc1 [Compound 7] . Reported Log k?
−0.0429

Now try Oc1ccc(/C=C/c2ccc(Cl)cc2Cl)cc1Cl [Compound 4] .
0.5423

Repeat for the following compound: Oc1ccc(/C=C/c2ccccc2)cc1Cl [Compound 2, 2-Chloro-4-[(E)-2-phenylvinyl]phenol]
0.0216

Request: Oc1ccc(/C=C/c2ccc(Cl)cc2)cc1 [Compound 1, 4-[(E)-2-(4-Chlorophenyl)vinyl]phenol]
−0.1255

What about this compound? O=[N+]([O-])c1ccc(/C=C/c2ccc(O)c(Cl)c2)cc1 [Compound 5]
−0.0669
